- TARGET_SYSTEM: 14-3-3ζ:BAD-112-136F interactions (Homo sapiens)
- Construct: expressed in transfected cells; host or cells: NIH-3T3 fibroblasts, bi-directional pBI-CMV1 plasmid
- Sequence (P63104 whole entry): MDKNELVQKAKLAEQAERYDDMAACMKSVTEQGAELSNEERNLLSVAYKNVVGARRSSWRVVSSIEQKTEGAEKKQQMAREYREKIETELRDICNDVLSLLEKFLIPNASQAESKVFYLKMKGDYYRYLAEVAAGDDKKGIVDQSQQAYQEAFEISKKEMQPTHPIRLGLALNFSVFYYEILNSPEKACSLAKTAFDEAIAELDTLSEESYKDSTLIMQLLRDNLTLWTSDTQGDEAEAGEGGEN
- ASSAY_NAME: BRET sensor screen for disruption of 14-3-3ζ-Rluc8:BAD-112-136F-mCitrine in living NIH-3T3 cells
- Type: cell-based, murine
- Design: dose or concentration left out as unconfirmed
- TEST_CONDITIONS: NIH3T3, 3 h, NIH-3T3 cells; hits from the primary screen; read-out: BRET reduction on NIH-3T3
Where a name gives a salt, the structure may show the parent alone.
MEASURE: inhibition (%)

[
  {
    "COMPOUND": "C[C@@H](O[C@H]1OCCN(Cc2n[nH]c(=O)[nH]2)[C@H]1c1ccc(F)cc1)c1cc(C(F)(F)F)cc(C(F)(F)F)c1 [Aprepitant]",
    "TARGET_SYSTEM": "14-3-3ζ:BAD-112-136F interactions (Homo sapiens)",
    "inhibition (%)": 26.6
  }
]

[A] CSc1ccc2c(c1)N(CCC1CCCCN1C)c1ccccc1S2 (centres unmarked) [Thioridazine HCl]
[B] CCCCCCCCCCCC[N+](C)(C)CCOc1ccccc1 [Domiphen Bromide]
Just tell me: smaller inhibition value, A or B ? Choose, then provide that item's label.
A
(A: 27.4%, B: 49%)

[P] CN1CCN(c2ccc(C(=O)Nc3n[nH]c4ccc(Cc5cc(F)cc(F)c5)cc34)c(NC3CCOCC3)c2)CC1
[Q] COc1cc2nccc(Oc3ccc(NC(=O)Nc4cc(C)on4)c(Cl)c3)c2cc1OC
Please indicate which entry, P or Q , has the lower recorded inhibition value. Respond with the label that goes with your answer.
Q
(Q: 26.5%, P: 56.8%)

---

Catalogue of cytotoxicity at 20 µM readings, one per entry.
- Test system: HT-29 cells
- ASSAY_NAME: Hoechst/propidium iodide cell death assay in HT-29
- Type: cell-based, human
- TEST_CONDITIONS: Homo sapiens, HT-29, 48 h, HT-29; 48h; 20 μM; read-out: Percentage of cell death % 48h, HT-29
Structures can show the parent of a compound that is named as a salt.
Give the quantity in %, number only.

Please review the following examples before continuing.
[
  {
    "COMPOUND": "OC1(c2ccc(Cl)c(C(F)(F)F)c2)CCN(CCCC(c2ccc(F)cc2)c2ccc(F)cc2)CC1",
    "TARGET_SYSTEM": "HT-29 cells",
    "MEASURE": "cytotoxicity at 20 µM",
    "UNIT_STRING": "%",
    "REPORTED_MEASUREMENT": 92.2
  },
  {
    "COMPOUND": "C[C@H](CCC(=O)O)[C@H]1CC[C@H]2[C@@H]3CC[C@@H]4C[C@H](O)CC[C@]4(C)[C@H]3CC[C@]12C",
    "TARGET_SYSTEM": "HT-29 cells",
    "MEASURE": "cytotoxicity at 20 µM",
    "UNIT_STRING": "%",
    "REPORTED_MEASUREMENT": 2.06
  },
  {
    "COMPOUND": "C=C(c1ccc(C(=O)O)cc1)c1cc2c(cc1C)C(C)(C)CCC2(C)C",
    "TARGET_SYSTEM": "HT-29 cells",
    "MEASURE": "cytotoxicity at 20 µM",
    "UNIT_STRING": "%",
    "REPORTED_MEASUREMENT": 4.19
  }
]

Find the recorded cytotoxicity at 20 µM belonging to CCN1CCN(c2cc(-c3ccc(F)cc3)c3c(n2)CCCCCC3)CC1 and report it.
15.5

Which cytotoxicity at 20 µM is reported for this compound? COc1ccc2c(O[C@@H]3C[C@H]4C(=O)N[C@]5(C(=O)NS(=O)(=O)C6CC6)C[C@H]5/C=C\CCCCN(C)C(=O)[C@@H]4C3)cc(-c3nc(C(C)C)cs3)nc2c1C
70.9

Any idea what its cytotoxicity at 20 µM is? The compound is CC/C(=C(\c1ccccc1)c1ccc(OCCN(C)C)cc1)c1ccccc1 [Tamoxifen Citrate]
63.3

Reported cytotoxicity at 20 µM, compound CCCCc1oc2ccc(NS(C)(=O)=O)cc2c1C(=O)c1ccc(OCCCN(CCCC)CCCC)cc1 : ____
79
